# Test system: Escherichia coli NIHJC-2
# assay method text: Heart Infusion Agar Dilution Method, minimum inhibitory concentration
# Type: cell-based
# condition details: NIHJC2; Escherichia coli NIHJC-2; Heart Infusion Agar Dilution Method, pH 7.2; read-out: Minimum Inhibitory Concentration
assay readout: MIC (µg/mL)

P. CO/N=C(\C(=O)N[C@@H]1C(=O)N2C(C(=O)O)=C(Cl)CC[C@H]12)c1ccco1 (relative stereo) [c]
Q. CCN1CCN(C(=O)N[C@@H](C(=O)N[C@@H]2C(=O)N3C(C(=O)O)=C(Cl)CC[C@H]23)c2ccccc2)C(=O)C1=O [b]
R. N[C@@H](C(=O)N[C@@H]1C(=O)N2C(C(=O)O)=C(Cl)CC[C@H]12)c1ccc(O)cc1 [e]
S. CO/N=C(\C(=O)N[C@@H]1C(=O)N2C(C(=O)O)=C(Cl)CC[C@H]12)c1csc(N)n1 (relative stereo) [d]
// ascending sort on MIC for the entries above Could you list the labels in the order requested?
S, R, Q, P

====

# System: Staphylococcus aureus Smith
# assay method text: Heart Infusion Agar Dilution Method, minimum inhibitory concentration
# Assay type: cell-based
# condition details: pH 7.2
assay readout: MIC (µg/mL)

Below, 2 compounds whose answers are already recorded.
[[record]]
compound = "N[C@@H](C(=O)N[C@@H]1C(=O)N2C(C(=O)O)=C(Cl)CC[C@H]12)c1ccc(O)cc1"
assay_readout = "MIC"
display_unit = "µg/mL"
measurement = 1.56

[[record]]
compound = "CO/N=C(\\C(=O)N[C@@H]1C(=O)N2C(C(=O)O)=C(Cl)CC[C@H]12)c1csc(N)n1 (relative stereo)"
assay_readout = "MIC"
display_unit = "µg/mL"
measurement = 50


1. CCN1CCN(C(=O)N[C@@H](C(=O)N[C@@H]2C(=O)N3C(C(=O)O)=C(Cl)CC[C@H]23)c2ccccc2)C(=O)C1=O
2. CO/N=C(\C(=O)N[C@@H]1C(=O)N2C(C(=O)O)=C(Cl)CC[C@H]12)c1ccco1 (relative stereo)
// compare measured MIC, left 1 , right 2 , return larger Lab log: write the label of the selected item as the result.
2
(2: 12.5 µg/mL, 1: 1.56 µg/mL)

====

# Tested on: Pseudomonas putida F264
# assay method text: Heart Infusion Agar Dilution Method, minimum inhibitory concentration
# Format: cell-based
# condition details: Pseudomonas putida F264; Heart Infusion Agar Dilution Method, pH 7.2; read-out: Minimum Inhibitory Concentration
assay readout: MIC (µg/mL)

[[record]]
molecule = "N[C@@H](C(=O)N[C@@H]1C(=O)N2C(C(=O)O)=C(Cl)CC[C@H]12)c1ccccc1"
assay_readout = "MIC"
measurement = 100

[[record]]
molecule = "N[C@@H](C(=O)N[C@@H]1C(=O)N2C(C(=O)O)=C(Cl)CC[C@H]12)c1ccc(O)cc1"
assay_readout = "MIC"
measurement = 100


1. CO/N=C(\C(=O)N[C@@H]1C(=O)N2C(C(=O)O)=C(Cl)CC[C@H]12)c1csc(N)n1 (relative stereo)
2. CCN1CCN(C(=O)N[C@@H](C(=O)N[C@@H]2C(=O)N3C(C(=O)O)=C(Cl)CC[C@H]23)c2ccccc2)C(=O)C1=O
// compare measured MIC, left 1 , right 2 , return larger Lab log: write the label of the selected item as the result.
2
(2: 25 µg/mL, 1: 3.12 µg/mL)
